Biological target: Bfl-1 (Homo sapiens)
Sequence (Q16548 1-151 limits assumed): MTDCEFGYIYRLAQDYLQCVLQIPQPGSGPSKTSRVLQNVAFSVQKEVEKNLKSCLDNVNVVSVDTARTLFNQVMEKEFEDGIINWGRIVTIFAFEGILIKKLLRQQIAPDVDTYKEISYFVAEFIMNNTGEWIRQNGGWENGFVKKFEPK
Assay: Fluorescence polarization competition with fluoresceinated Bim BH3
Type: binding
No end group written: not given here.
assay.endpoint: Ki (nM)

> print(dat)
                              substance  quantitative.result
1         RPEIWMAQVLRRFGDLLNAYYAR [FD2]                  3.8
2  Ac-RPEIWLAQYLRRLGDQINAYYAR-NH2 [FD1]                  0.7

From: paper PMC3631442
